# Assay Protocol: Cmax in C57BL/6 mouse brain at 1.81 mg/kg, po
# Format: ADME, organism-based
# Set-up: dose 1.81 mg/kg, route oral
Property Label: Cmax

>  <Item Smiles>
N#Cc1cccc(COc2ccc3c(c2)CN2C(=O)CN(C4CCCC4)C(=O)[C@H]2C3)c1

>  <Obs Value>
92 ng/mL

$$$$

###

# Assay Protocol: Induction of neurogenesis in human H9-derived neuronal progenitor cells at 10 uM assessed as increase in Tuj1 positive cells
# Type: functional, Neuronal progenitor cell

>  <Item Smiles>
C[C@H]1C(=O)N2Cc3cc(OCc4cccc(C#N)c4)ccc3C[C@@H]2C(=O)N1C1CCCC1

>  <fold change (FC)>
1.98

$$$$
>  <Item Smiles>
O=C1[C@H]2Cc3ccc(OCc4cccc(F)c4)cc3CN2C(=O)CN1C1CCCC1

>  <fold change (FC)>
1.83

$$$$
>  <Item Smiles>
N#Cc1cccc(CNc2ccc3c(c2)CN2C(=O)CN(C4CCCCC4)C(=O)[C@H]2C3)c1

>  <fold change (FC)>
1.53

$$$$
>  <Item Smiles>
N#Cc1cccc(COc2ccc3c(c2Br)CN2C(=O)CN(C4CCCC4)C(=O)[C@H]2C3)c1

>  <fold change (FC)>
1.9

$$$$
>  <Item Smiles>
CCOC(=O)C[C@H]1CC[C@H](N2CC(=O)N3Cc4cc(OCc5cccc(C#N)c5)ccc4C[C@@H]3C2=O)CC1

>  <fold change (FC)>
1.69

$$$$
>  <Item Smiles>
O=C1[C@H]2Cc3ccc(OCc4cccc(N5CCOCC5)c4)cc3CN2C(=O)CN1C1CCCC1

>  <fold change (FC)>
2.06

$$$$
>  <Item Smiles>
N#Cc1cccc(COc2ccc3c(c2)CN2C(=O)CN(CC4CCC4)C(=O)[C@H]2C3)c1

>  <fold change (FC)>
2.12

$$$$
>  <Item Smiles>
N#Cc1cccc(COc2ccc3c(c2)CN2C(=O)CN(C4CCN(CCF)CC4)C(=O)[C@H]2C3)c1

>  <fold change (FC)>
1.91

$$$$
>  <Item Smiles>
C[C@@H]1C(=O)N2Cc3cc(OCc4cccc(C#N)c4)ccc3C[C@@H]2C(=O)N1C1CCCC1

>  <fold change (FC)>
2.41

$$$$
>  <Item Smiles>
O=C1[C@H]2Cc3ccc(OCc4ccccc4)cc3CN2C(=O)CN1C1CCCC1

>  <fold change (FC)>
2.07

$$$$
>  <Item Smiles>
O=C1[C@H]2Cc3ccc(OCc4ccc(Cl)cc4)cc3CN2C(=O)CN1C1CCCC1

>  <fold change (FC)>
2.09

$$$$
>  <Item Smiles>
N#Cc1cccc(OCc2ccc3c(c2)CN2C(=O)CN(C4CCCC4)C(=O)[C@H]2C3)c1

>  <fold change (FC)>
2

$$$$
>  <Item Smiles>
O=C1[C@H]2Cc3ccc(OCc4cccc(Cl)c4)cc3CN2C(=O)CN1C1CCCC1

>  <fold change (FC)>
2.29

$$$$
